These entries and their values trace back to the supplement of paper PMC11246515.

# assayRemarks: total protein half-life in vivo (active degradation + dilution); higher = more stable protein
# conditionDetails: E. coli NCM3722 delta-smpB; growth: N-lim chemostat; doubling time 6 h
For each entry below, report its total protein half-life in vivo value.
Answers are plain numbers, in h.

# annotated cases, reported total protein half-life in vivo shown
{"columns": ["inputSequence", "reportedEndpoint", "units", "recordedValue"],
 "data": [
  ["MKCKRLNEVIELLQPAWQKEPDLNLLQFLQKLAKESGFDGELADLTDDILIYHLKMRDSAKDAVIPGLQKDYEEDFKTALLRARGVIKE [P0ADP9]", "total protein half-life in vivo", "h", 3.12],
  ["MSALNKKSFLTYLKEGGIYVVLLVLLAIIIFQDPTFLSLLNLSNILTQSSVRIIIALGVAGLIVTQGTDLSAGRQVGLAAVVAATLLQSMDNANKVFPEMATMPIALVILIVCAIGAVIGLINGLIIAYLNVTPFITTLGTMIIVYGINSLYYDFVGASPISGFDSGFSTFAQGFVALGSFRLSYITFYALIAVAFVWVLWNKTRFGKNIFAIGGNPEAAKVSGVNVGLNLLMIYALSGVFYAFGGMLEAGRIGSATNNLGFMYELDAIAACVVGGVSFSGGVGTVIGVVTGVIIFTVINYGLTYIGVNPYWQYIIKGAIIIFAVALDSLKYARKK", "total protein half-life in vivo", "h", 6.18],
  ["MKKKRPVLQDVADRVGVTKMTVSRFLRNPEQVSVALRGKIAAALDELGYIPNRAPDILSNATSRAIGVLLPSLTNQVFAEVLRGIESVTDAHGYQTMLAHYGYKPEMEQERLESMLSWNIDGLILTERTHTPRTLKMIEVAGIPVVELMDSKSPCLDIAVGFDNFEAARQMTTAIIARGHRHIAYLGARLDERTIIKQKGYEQAMLDAGLVPYSVMVEQSSSYSSGIELIRQARREYPQLDGVFCTNDDLAVGAAFECQRLGLKVPDDMAIAGFHGHDIGQVMEPRLASVLTPRERMGSIGAERLLARIRGESVTPKMLDLGFTLSPGGSI [P0ACP5]", "total protein half-life in vivo", "h", 5.75],
  ["MTKTLLDGPGRVLESVYPRFLVDLAQGDDARLPQAHQQQFRERLMQELLSRVQLQTWTNGGMLNAPLSLRLTLVEKLASMLDPGHLALTQIAQHLALLQKMDHRQHSAFPELPQQIAALYEWFSARCRWKEKALTQRGLLVQAGDQSEQIFTRWRAGAYNAWSLPGRCFIVLEELRWGAFGDACRLGSPQAVALLLGDLLEKATQHLAESINAAPTTRHYYHQWFASSTVPTGGEHADFLSWLGKWTTADKQPVCWSVTQRWQTVALGMPRLCSAQRLAGAMLEEIFSVNLA", "total protein half-life in vivo", "h", 3.06]
]}

Now examine the next entry.
Input: Any idea what its total protein half-life in vivo is? The sequence is MLRFSANLSMLFGEYDFLARFEKAAQCGFRGVEFMFPYDYDIEELKHVLASNKLEHTLHNLPAGDWAAGERGIACIPGREEEFRDGVAAAIRYARALGNKKINCLVGKTPAGFSSEQIHATLVENLRYAANMLMKEDILLLIEPINHFDIPGFHLTGTRQALKLIDDVGCCNLKIQYDIYHMQRMEGELTNTMTQWADKIGHLQIADNPHRGEPGTGEINYDYLFKVIENSDYNGWVGCEYKPQTTTEAGLRWMDPYR
Output: 3.59
